# assayed target: human DGKζ (Homo sapiens)
# Construct: TVMV protease cleavage site (C); Hexa-His (C); made in house; host or cells: Sf9 insect cells (baculovirus, Bac-to-Bac)
# Sequence (Q13574 with tags, fused parts or gaps isoform Q13574-4): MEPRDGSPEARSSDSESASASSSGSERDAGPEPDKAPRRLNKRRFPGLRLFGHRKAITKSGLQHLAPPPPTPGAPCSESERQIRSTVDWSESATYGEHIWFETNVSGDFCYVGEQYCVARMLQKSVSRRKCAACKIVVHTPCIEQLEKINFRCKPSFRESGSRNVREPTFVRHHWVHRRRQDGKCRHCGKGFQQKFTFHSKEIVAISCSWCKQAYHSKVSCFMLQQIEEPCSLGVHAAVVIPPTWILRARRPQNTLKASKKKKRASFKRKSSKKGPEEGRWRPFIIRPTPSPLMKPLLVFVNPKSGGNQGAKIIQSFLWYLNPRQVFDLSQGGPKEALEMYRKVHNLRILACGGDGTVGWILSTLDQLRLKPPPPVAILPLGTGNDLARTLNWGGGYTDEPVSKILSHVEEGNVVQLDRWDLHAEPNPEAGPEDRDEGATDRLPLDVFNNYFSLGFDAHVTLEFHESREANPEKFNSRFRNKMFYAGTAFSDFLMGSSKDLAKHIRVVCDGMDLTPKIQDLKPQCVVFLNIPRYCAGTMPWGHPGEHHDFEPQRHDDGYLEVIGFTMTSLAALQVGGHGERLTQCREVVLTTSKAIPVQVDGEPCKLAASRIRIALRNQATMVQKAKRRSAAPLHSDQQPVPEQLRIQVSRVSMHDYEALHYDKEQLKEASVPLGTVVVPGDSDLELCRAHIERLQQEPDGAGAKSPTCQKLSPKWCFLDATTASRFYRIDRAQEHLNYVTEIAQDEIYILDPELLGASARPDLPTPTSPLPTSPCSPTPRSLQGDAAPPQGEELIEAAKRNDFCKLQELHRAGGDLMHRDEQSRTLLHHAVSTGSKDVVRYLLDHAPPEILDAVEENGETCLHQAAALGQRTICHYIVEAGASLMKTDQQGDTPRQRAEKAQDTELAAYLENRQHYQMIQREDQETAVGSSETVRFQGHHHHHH
# protocol text: DGKζ LIPGLO assay (extruded liposome substrate), in vitro DGK inhibition
# Format: biochemical
# test parameters: liposome (LIPGLO) assay; read-out: DGKz LIPGLO IC50
Would you mind telling me the reported IC50 of each entry?
Please respond with the number in nM and leave the unit unwritten.

Report IC50 for C[C@@H]1CN(c2cc(=O)n(C)c3ccc(C#N)nc23)[C@@H](C)CN1C(c1ccc(F)cc1)c1ccc(Cl)cn1 (single isomer, unassigned) [Example 212] please.
590

What does the data say about its IC50? Entry: Cn1c(=O)cc(N2CCN(C(c3ccc(F)cc3)c3ccc(F)cc3)C(COC(F)F)C2)c2nc(C#N)ccc21 (single isomer, unassigned) [Example 1187]
2900

Given C[C@@H]1CN(c2cc(=O)n(C)c3ccc(C#N)nc23)[C@@H](C)CN1C(c1ccc(Cl)cc1)c1cccc(F)n1 (single isomer, unassigned) [Example 196] , state its recorded IC50.
3000

Need IC50 of CC[C@@H]1CN(c2cc(=O)n(C)c3ccc(C#N)nc23)[C@@H](C)CN1C(C)c1ccc(OC(F)F)cc1 (some centres unmarked) [Example 1344] , thanks.
16

Consider the molecule shown here: CC[C@@H]1CN(c2cc(=O)n(C)c3ccc(C#N)nc23)[C@@H](C)CN1C(C)c1ccc(C#N)cc1 (single isomer, unassigned) [Example 1345] What is its recorded IC50?
75

The values you see were collected from patent US10669272B2.
